biological target: Transient receptor potential cation channel subfamily V member 1 (Homo sapiens, UniProt Q8NER1); experiment: Effect on cooperativity of Resiniferatoxin (RTX) binding (Hill coefficient); format: functional
Sequence (Q8NER1 whole entry): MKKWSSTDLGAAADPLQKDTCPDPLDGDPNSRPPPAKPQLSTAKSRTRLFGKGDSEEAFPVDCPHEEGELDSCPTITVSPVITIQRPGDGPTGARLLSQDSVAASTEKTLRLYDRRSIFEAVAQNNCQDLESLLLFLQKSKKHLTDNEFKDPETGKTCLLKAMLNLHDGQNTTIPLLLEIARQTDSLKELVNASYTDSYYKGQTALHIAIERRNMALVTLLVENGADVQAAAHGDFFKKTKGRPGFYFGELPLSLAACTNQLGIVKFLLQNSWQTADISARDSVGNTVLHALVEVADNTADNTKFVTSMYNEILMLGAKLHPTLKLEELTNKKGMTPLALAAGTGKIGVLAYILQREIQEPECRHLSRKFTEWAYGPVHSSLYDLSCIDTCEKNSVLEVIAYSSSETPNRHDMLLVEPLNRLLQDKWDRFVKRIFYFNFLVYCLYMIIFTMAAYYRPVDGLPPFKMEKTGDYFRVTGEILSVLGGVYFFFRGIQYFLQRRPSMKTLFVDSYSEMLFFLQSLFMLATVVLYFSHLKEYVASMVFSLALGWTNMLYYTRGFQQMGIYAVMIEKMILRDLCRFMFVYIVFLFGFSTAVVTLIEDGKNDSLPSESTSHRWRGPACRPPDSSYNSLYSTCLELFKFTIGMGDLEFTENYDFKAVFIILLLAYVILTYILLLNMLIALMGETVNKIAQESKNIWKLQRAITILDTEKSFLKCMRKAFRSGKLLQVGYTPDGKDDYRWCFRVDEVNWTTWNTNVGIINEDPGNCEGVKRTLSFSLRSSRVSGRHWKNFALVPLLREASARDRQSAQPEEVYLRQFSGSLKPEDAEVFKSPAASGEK
Hill coefficient under 1 gets 1, anything at or over 1 gets -1.

{"columns": ["COMPOUND", "ANSWER_LABEL"],
 "data": [
  ["COc1cc(CC(=O)OCC2=C[C@H]3[C@@H]4C(C)(C)[C@]4(OC(C)=O)[C@H](OC(=O)CC4CCCCC4)[C@@H](C)[C@]3(O)[C@@H]3C=C(C)C(=O)[C@@]3(O)C2)ccc1O", -1],
  ["COc1cc(CC(=O)OCC2=C[C@H]3[C@@H]4C(C)(C)[C@]4(OC(C)=O)[C@H](OC(=O)Cc4ccc(N=[N+]=[N-])cc4)[C@@H](C)[C@]3(O)[C@@H]3C=C(C)C(=O)[C@@]3(O)C2)ccc1O", -1],
  ["COc1cc(CC(=O)OCC2=C[C@H]3[C@@H]4C(C)(C)[C@]4(OC(=O)Cc4ccccc4)C(=O)[C@@H](C)[C@]3(O)[C@@H]3C=C(C)C(=O)[C@@]3(O)C2)ccc1O", 1],
  ["Oc1cc2c(cc1O)CN(C(=S)NCCc1ccc(Cl)cc1)CCC2 [CAPSAZEPINE]", -1],
  ["COc1cc(CNC(=O)CCCC/C=C/C(C)C)ccc1O", -1]
]}
